Taken from PubChem BioAssay (NCI).

- METHOD_DESCRIPTION: NCI Yeast Anticancer Drug Screen. Data for the mec2-1 strain (AID 157)
- CONDITION_SUMMARY: S. cerevisiae mec2-1 strain, at 50.0 µM, hits give high values
Compounds without any hit were thinned out: in the full panel of roughly 79,000, 15% have a hit.
# growth inhibition >= 30% gives Criterion met, anything below gives Criterion not met

Could you tell me if the measured growth inhibition of N#CC(C#N)=Cc1c(O)ccc2ccccc12 reaches 30% or more? Criterion met

Could you tell me if the measured growth inhibition of Nc1ccncc1 reaches 30% or more? Criterion not met

Could you tell me if the measured growth inhibition of CC(Cl)CN1COc2c3c(c4ccccc4c2C1)CN(CC(C)Cl)CO3 (stereo not drawn) reaches 30% or more? Criterion met

Could you tell me if the measured growth inhibition of c1ccc(CC[n+]2cccc3ccccc32)cc1 reaches 30% or more? Criterion not met

Could you tell me if the measured growth inhibition of CCC[CH2][Sn]([CH2]CCC)([CH2]CCC)[CH2]CC[N+](C)(CCO)CCO.CS(=O)(=O)[O-] reaches 30% or more? Criterion met

Could you tell me if the measured growth inhibition of C[C@H]1CC[C@@]2(NC1)O[C@H]1C[C@H]3[C@@H]4CC[C@H]5C[C@@H](O)CC[C@]5(C)[C@H]4CC[C@]3(C)[C@H]1[C@@H]2C reaches 30% or more? Criterion met

Could you tell me if the measured growth inhibition of Fc1ccc(C2(N3CCC4(CC3)OCCO4)CCCCC2)cc1 reaches 30% or more? Criterion not met

Could you tell me if the measured growth inhibition of C#CCN1C(=O)N(CC#C)C(=O)C(CC#C)(C(CC=C)c2ccccc2)C1=O (stereo not drawn) reaches 30% or more? Criterion not met

Could you tell me if the measured growth inhibition of CCN1C(=O)C(=C/C=C/c2ccc(OC)cc2)C(=O)N(CC)C1=S reaches 30% or more? Criterion not met

Could you tell me if the measured growth inhibition of Cc1cc(N(CCCl)CCCl)ccc1CN1CCCN(Cc2ccc(N(CCCl)CCCl)cc2C)C1c1ccccc1O reaches 30% or more? Criterion not met

Could you tell me if the measured growth inhibition of O=C(O)CCC(=O)O.[Ni] reaches 30% or more? Criterion not met

Could you tell me if the measured growth inhibition of C1=C\CCC2SC2CC/1 (stereo not drawn) reaches 30% or more? Criterion not met

Could you tell me if the measured growth inhibition of C/C=C1/CC(C)C(C)(O)C(=O)OCC2CCN3CCC(OC1=O)C23 (stereo not drawn) reaches 30% or more? Criterion not met

Could you tell me if the measured growth inhibition of CCOP(=O)(OCC)C(F)(F)CC1CCCCC1 reaches 30% or more? Criterion not met

Could you tell me if the measured growth inhibition of [I][Hg][CH2]C1OCCOC1[CH2][Hg][I] (stereo not drawn) reaches 30% or more? Criterion met

Could you tell me if the measured growth inhibition of CC1C2Cc3ccc(O)cc3C1(C)CCN2CCC(=O)c1ccccc1 (stereo not drawn) reaches 30% or more? Criterion not met

Could you tell me if the measured growth inhibition of CCCCCCCCc1ccc(OCCN(CCCl)CCCl)cc1 reaches 30% or more? Criterion met

Could you tell me if the measured growth inhibition of C1CN1[PH+](N1CC1)N1CC1.C1CN1[PH+](N1CC1)N1CC1.[I][Pt][I] reaches 30% or more? Criterion not met

Could you tell me if the measured growth inhibition of C[N+](C)(C)CC1CCCC(C[N+](C)(C)C)C1O (stereo not drawn) reaches 30% or more? Criterion met

Could you tell me if the measured growth inhibition of Cc1c([N+](=O)[O-])cc(C(C)(C)C)c(O)c1[N+](=O)[O-] reaches 30% or more? Criterion met

Could you tell me if the measured growth inhibition of CCC[CH2][Sn]([CH2]CCC)([O]C(=O)CCC(C)=O)[O]C(=O)CCC(C)=O reaches 30% or more? Criterion met

Could you tell me if the measured growth inhibition of COc1cc(C2CNCc3cc(OC)c(O)cc32)ccc1O (stereo not drawn) reaches 30% or more? Criterion not met

Could you tell me if the measured growth inhibition of OC[P+](CO)(CO)CO reaches 30% or more? Criterion not met

Could you tell me if the measured growth inhibition of [Cl][Hg][c]1ccccc1N=Nc1ccccc1I reaches 30% or more? Criterion met

Could you tell me if the measured growth inhibition of O=[N+]([O-])c1ccc(C2C3C(c4ccccc4)=NCCCN32)cc1 (stereo not drawn) reaches 30% or more? Criterion not met

Could you tell me if the measured growth inhibition of Cc1nn(C)pc1P(C)(=S)n1nc(N(C)C)np1 (stereo not drawn) reaches 30% or more? Criterion not met

Could you tell me if the measured growth inhibition of CCCC1C(=O)NC(=O)NC1=O reaches 30% or more? Criterion not met

Could you tell me if the measured growth inhibition of COC(=O)c1cccc2cc3cccc[n+]3cc12 reaches 30% or more? Criterion not met

Could you tell me if the measured growth inhibition of O=c1cccc(C2CC(CO)C3CCCCN3C2)[nH]1 (stereo not drawn) reaches 30% or more? Criterion met

Could you tell me if the measured growth inhibition of CC(C)(C)c1ccc(O)cc1 reaches 30% or more? Criterion not met

Could you tell me if the measured growth inhibition of CC(=N\O)/C(C)=N/O.CC(=N\O)/C(C)=N/O.[Ni] reaches 30% or more? Criterion not met

Could you tell me if the measured growth inhibition of CCCCCCCCCCNP(=S)(NCCCCCCCCCC)c1ccccc1 reaches 30% or more? Criterion not met

Could you tell me if the measured growth inhibition of Cc1cc(OCC2=NCCN2)c(C)c(C)c1Cl reaches 30% or more? Criterion not met

Could you tell me if the measured growth inhibition of CC(=O)c1ccccc1O.CO.CO.[Cl][Ta][Cl] reaches 30% or more? Criterion not met

Could you tell me if the measured growth inhibition of CCCCC(CC)COP(OCC(CC)CCCC)OCC(CC)CCCC.[Cl][Sn][Cl] (stereo not drawn) reaches 30% or more? Criterion not met

Could you tell me if the measured growth inhibition of CC12OOC(c3ccccc31)c1c2ccc2ccccc12 (stereo not drawn) reaches 30% or more? Criterion met

Could you tell me if the measured growth inhibition of CC(=O)OCCCn1nc(COC(N)=O)c2c1CC(C)CC2=O (stereo not drawn) reaches 30% or more? Criterion not met

Could you tell me if the measured growth inhibition of O=NN(O)c1ccccc1.O=NN(O)c1ccccc1.[Mn+2] reaches 30% or more? Criterion not met

Could you tell me if the measured growth inhibition of CC[n+]1c(/C=C/c2ccc(N(CCCl)CCCl)cc2)ccc2cc(NC(=O)/C=C/c3ccccc3)ccc21 reaches 30% or more? Criterion met

Could you tell me if the measured growth inhibition of O=C(C[n+]1ccccc1)C1CCc2ccccc2C1 (stereo not drawn) reaches 30% or more? Criterion not met

Could you tell me if the measured growth inhibition of c1ccc2c(c1)sc1sc3c([n+]12)CCCC3 reaches 30% or more? Criterion not met

Could you tell me if the measured growth inhibition of c1ccc2c(c1)CCNC2 reaches 30% or more? Criterion not met

Could you tell me if the measured growth inhibition of COc1ccc(CC2OC3(CCCCC3)CC3CCCCN32)cc1 (stereo not drawn) reaches 30% or more? Criterion not met

Could you tell me if the measured growth inhibition of NC(Cc1ccccc1)c1ccccc1 (stereo not drawn) (tested in a mixture with another compound) reaches 30% or more? Criterion not met

Could you tell me if the measured growth inhibition of CC1=CC(=C2C=CC(=[N+](C)C)C=C2)C=C(C)S1 reaches 30% or more? Criterion met

Could you tell me if the measured growth inhibition of ClC(CN1CCCCC1)C(Cl)c1ccccc1 (stereo not drawn) reaches 30% or more? Criterion not met

Could you tell me if the measured growth inhibition of COC(=O)/C=C/[C@@H]1[C@H](C)N1S(=O)(=O)c1ccc(C)cc1 (stereo partly drawn) reaches 30% or more? Criterion not met

Could you tell me if the measured growth inhibition of O=Cc1ccccc1O reaches 30% or more? Criterion not met
